- Test system: CaCo2 monolayer
- assayProcedure: CaCo2 Transwell transport (Papp, efflux ratio)
- Assay type: in vitro ADME, human
- assayContext: 10 µM, A–B; listed as afatinib
endpoint: Papp apical to basolateral (×10⁻⁶ cm/s)
Please give a number only; it is taken to be in ×10⁻⁶ cm/s.

IN: Looking for the measured Papp apical to basolateral of CN(C)C/C=C/C(=O)Nc1cc2c(Nc3ccc(F)c(Cl)c3)ncnc2cc1O[C@H]1CCOC1 [Afatinib, afatinib] , can you help?
OUT: 1.5

----------
- System: CaCo2 monolayer
- assayProcedure: CaCo2 Transwell transport (Papp, efflux ratio)
- Type: in vitro ADME, human
- assayContext: 10 µM, A–B
endpoint: Papp apical to basolateral (×10⁻⁶ cm/s)
Please give a number only; it is taken to be in ×10⁻⁶ cm/s.

> print(dat)
                          structureassmiles  unitannotation   val
1  COc1cc2ncnc(Nc3ccc(F)c(Cl)c3)c2cc1OCCCN1CCOCC1      ×10⁻⁶ cm/s  0.57

Kindly consider the entry below.
IN: Looking for the measured Papp apical to basolateral of CN(C)C/C=C/C(=O)Nc1cc2c(Nc3ccc(F)c(Cl)c3)ncnc2cc1O[C@H]1CCOC1 , can you help?
OUT: 1.48

----------
- System: CaCo2 cells
- assayProcedure: Intracellular accumulation in CaCo2 Transwell cells at the end of the transport period
- Assay type: in vitro ADME, human
- assayContext: A->B incubation
Recorded Intracellular accumulation at the end of the transfer period (A->B) for the following compounds
Please give a number only; it is taken to be in pmol/μg protein.

> print(dat)
                                   compound   unitannotation   val
1  COc1cc2ncnc(Nc3ccc(F)c(Cl)c3)c2cc1OCCCN1CCOCC1 [Gefitinib, gefitinib]  pmol/μg protein  0.79

IN: Looking for the measured Intracellular accumulation at the end of the transfer period (A->B) of CNC(=O)c1cc(Oc2ccc(NC(=O)Nc3ccc(Cl)c(C(F)(F)F)c3)cc2)ccn1 [Sorafenib, sorafenib] , can you help?
OUT: 1.65

IN: Looking for the measured Intracellular accumulation at the end of the transfer period (A->B) of CN(C)C/C=C/C(=O)Nc1cc2c(Nc3ccc(F)c(Cl)c3)ncnc2cc1O[C@H]1CCOC1 [Afatinib, afatinib] , can you help?
OUT: 0.45

IN: Looking for the measured Intracellular accumulation at the end of the transfer period (A->B) of C[C@@H](Oc1cc(-c2cnn(C3CCNCC3)c2)cnc1N)c1c(Cl)ccc(F)c1Cl [Crizotinib, crizotinib] , can you help?
OUT: 2.11

IN: Looking for the measured Intracellular accumulation at the end of the transfer period (A->B) of Cc1nc(Nc2ncc(C(=O)Nc3c(C)cccc3Cl)s2)cc(N2CCN(CCO)CC2)n1 [Dasatinib, dasatinib] , can you help?
OUT: 1.1

IN: Looking for the measured Intracellular accumulation at the end of the transfer period (A->B) of CCN(CC)CCNC(=O)c1c(C)[nH]c(/C=C2\C(=O)Nc3ccc(F)cc32)c1C [Sunitinib, sunitinib] , can you help?
OUT: 11.9

----------
Recorded blood plasma ratio for the following compounds
- assayProcedure: Disposition in blood compartments (whole blood, plasma, serum) of patients
- Assay type: in vivo, human
- assayContext: human, whole blood and plasma, oral, clinical samples; read-out: Blood to plasma ratio

> print(dat)
                                   compound            endpoint  val
1  CNC(=O)c1cc(Oc2ccc(NC(=O)Nc3ccc(Cl)c(C(F)(F)F)c3)cc2)ccn1 [Sorafenib, sorafenib]  blood plasma ratio  > 3

Kindly consider the entry below.
IN: Looking for the measured blood plasma ratio of C#Cc1cccc(Nc2ncnc3cc(OCCOC)c(OCCOC)cc23)c1 [Erlotinib, erlotinib] , can you help?
OUT: > 30

----------
- assayProcedure: CaCo2 Transwell transport (Papp, efflux ratio)
- Assay type: in vitro ADME, human
- assayContext: human, Caco-2; 10 µM, B–A; read-out: Papp (Basolateral Apical)
Recorded Papp B→A at 180 min, 10 µM for the following molecules

The cases that follow already have their Papp B→A at 180 min, 10 µM on record.
> print(dat)
                          structureassmiles                    endpoint              val
1  COc1cc2ncnc(Nc3ccc(F)c(Cl)c3)c2cc1OCCCN1CCOCC1  Papp B→A at 180 min, 10 µM  0.19 ×10⁻⁶ cm/s
2  CN(C)C/C=C/C(=O)Nc1cc2c(Nc3ccc(F)c(Cl)c3)ncnc2cc1O[C@H]1CCOC1  Papp B→A at 180 min, 10 µM  10.9 ×10⁻⁶ cm/s
3  C[C@@H](Oc1cc(-c2cnn(C3CCNCC3)c2)cnc1N)c1c(Cl)ccc(F)c1Cl  Papp B→A at 180 min, 10 µM   7.7 ×10⁻⁶ cm/s
4  C#Cc1cccc(Nc2ncnc3cc(OCCOC)c(OCCOC)cc23)c1  Papp B→A at 180 min, 10 µM  0.79 ×10⁻⁶ cm/s

Kindly consider the entry below.
IN: Looking for the measured Papp B→A at 180 min, 10 µM of CNC(=O)c1cc(Oc2ccc(NC(=O)Nc3ccc(Cl)c(C(F)(F)F)c3)cc2)ccn1 , can you help?
OUT: 9.3 ×10⁻⁶ cm/s

----------
- assayProcedure: Disposition in blood compartments (whole blood, plasma, serum) of patients
- Format: in vivo, human
- assayContext: human, whole blood and plasma, oral, 2000–2800 mg cumulative daily dose, 12 patients, mean ± SD; read-out: Whole blood/plasma ratio
endpoint: blood plasma ratio
Answer using only a numeral; do not append any unit.

IN: Looking for the measured blood plasma ratio of CNC(=O)c1cc(Oc2ccc(NC(=O)Nc3ccc(Cl)c(C(F)(F)F)c3)cc2)ccn1 , can you help?
OUT: 1.2

----------
- assayProcedure: CaCo2 Transwell transport (Papp, efflux ratio)
- Type: in vitro ADME, human
- assayContext: human, Caco-2, with sorafenib (co-incubated, concentration not stated), 10 µM, with sorafenib; read-out: Efflux Ratio (Papp B–A / Papp A–B)
endpoint: efflux ratio at 180 min, 10 µM
Answer using only a numeral; do not append any unit.

IN: Looking for the measured efflux ratio at 180 min, 10 µM of C#Cc1cccc(Nc2ncnc3cc(OCCOC)c(OCCOC)cc23)c1 [Erlotinib, erlotinib] , can you help?
OUT: 1.4

----------
- assayProcedure: CaCo2 Transwell transport (Papp, efflux ratio)
- Type: in vitro ADME, human
- assayContext: human, Caco-2, with erlotinib (co-incubated, concentration not stated); 10 µM, B–A, with erlotinib; read-out: Papp (Basolateral Apical)
endpoint: Papp B→A at 180 min, 10 µM (×10⁻⁶ cm/s)
Please give a number only; it is taken to be in ×10⁻⁶ cm/s.

IN: Looking for the measured Papp B→A at 180 min, 10 µM of CNC(=O)c1cc(Oc2ccc(NC(=O)Nc3ccc(Cl)c(C(F)(F)F)c3)cc2)ccn1 , can you help?
OUT: 13.3

----------
- assayProcedure: CaCo2 Transwell transport (Papp, efflux ratio)
- Assay type: in vitro ADME, human
- assayContext: human, Caco-2, with erlotinib (co-incubated, concentration not stated); 10 µM, A–B, with erlotinib; read-out: Papp (Apical Basolateral)
endpoint: Papp A→B at 180 min, 10 µM (×10⁻⁶ cm/s)
Please give a number only; it is taken to be in ×10⁻⁶ cm/s.

IN: Looking for the measured Papp A→B at 180 min, 10 µM of CNC(=O)c1cc(Oc2ccc(NC(=O)Nc3ccc(Cl)c(C(F)(F)F)c3)cc2)ccn1 , can you help?
OUT: 18.6
